Please respond with reported pIC50 for every item in the list.
- System: cancer cell lines with wild-type p53 / mutated or deleted p53 (ATCC)
- Run Description: Cell growth assay (WST-8), other cancer cell lines
- Format: cell-based
- Test Settings: Homo sapiens, PC-3, Table 19B; PC3 cells; read-out: Inhibition of cell growth IC50, PC3
pIC50 is a log-scale quantity: -log10 of the concentration expressed in molar.

Ask: Using the record for O=C(NCC[C@H](O)CO)[C@@H]1N[C@H](CC2CCCCC2)[C@]2(C(=O)Nc3cc(Cl)c(F)cc32)[C@H]1c1cccc(Cl)c1 [MI-716A] , state its measured pIC50.
Result: 4.94

Ask: Using the record for CCCCC(C)(C)C[C@H]1N(C)[C@@H](C(=O)NCC[C@H](O)CO)[C@H](c2cccc(Cl)c2)[C@@]12C(=O)Nc1cc(Cl)c(F)cc12 , state its measured pIC50.
Result: 5.15

Ask: Using the record for CCC[C@H]1N[C@@H](C(=O)NCC[C@H](O)CO)[C@H](c2cccc(Cl)c2)[C@@]12C(=O)Nc1cc(Cl)c(F)cc12 , state its measured pIC50.
Result: 4.84

Ask: Using the record for CC(C)CC(C)(C)C[C@H]1N[C@@H](C(=O)NCC[C@H](O)CO)[C@H](c2cccc(Cl)c2F)[C@@]12C(=O)Nc1cc(Cl)c(F)cc12 , state its measured pIC50.
Result: 5.25

Ask: Using the record for CC(C)CC[C@H]1N[C@@H](C(=O)NCC[C@H](O)CO)[C@H](c2cccc(Cl)c2)[C@@]12C(=O)Nc1cc(Cl)c(F)cc12 , state its measured pIC50.
Result: 4.36

====

- System: cancer cell lines with wild-type p53 / mutated or deleted p53 (ATCC)
- Run Description: Cell growth assay (WST-8), other cancer cell lines
- Assay type: cell-based
- Test Settings: Homo sapiens, PC-3, Table 19B; PC3 cells; read-out: Inhibition of cell growth IC50, PC3
Metric Name: IC50

Ask: Using the record for CN1[C@@H](C(=O)NCCN2CCOCC2)[C@H](c2cccc(Cl)c2F)[C@@]2(C(=O)Nc3cc(F)c(F)cc32)[C@H]1CC(C)(C)C [MI-722] , state its measured IC50.
Result: > 100 µM

Ask: Using the record for O=C(NCC[C@H](O)CO)[C@@H]1N[C@H](CCc2ccco2)[C@]2(C(=O)Nc3cc(Cl)c(F)cc32)[C@H]1c1cccc(Cl)c1 [MI-715B] , state its measured IC50.
Result: > 10 µM

Ask: Using the record for CC(C)(C)C[C@@H]1[C@]2(C(=O)Nc3cc(Cl)c(F)cc32)[C@@H](c2cccc(Cl)c2)[C@H](C(=O)NCC[C@H](O)CO)[N+]1(C)C [MI-719] , state its measured IC50.
Result: > 100 µM
